Assay: NCI Yeast Anticancer Drug Screen. Data for the bub3 strain (AID 167)
Conditions: S. cerevisiae bub3 mutant strain, at 50.0 µM (retest, dose inferred, filed as 5.0), stronger effect = higher value
The panel holds about 79,000 compounds, 15% with a hit somewhere; the sample as a whole holds those more often.
Classification field: 1.0 = growth inhibition at or over 90%; 0.0 = growth inhibition under 90%.

A selection of reference data follows.
growth inhibition >= 90% for COc1cc(C2C3=C(COC3=O)Oc3cc4c(cc32)OCO4)ccc1O (centres undefined) ?
0.0

growth inhibition >= 90% for O=C1CSC(/C=C/c2ccccc2)N1c1ccc(-c2ccc(-n3c(-c4ccccc4)nc4ccccc4c3=O)cc2)cc1 (centres undefined) ?
0.0

growth inhibition >= 90% for CC(=O)Oc1ccc2c(c1)Cc1cc(N=C3C=CC(=O)O3)ccc1-2 ?
1.0

growth inhibition >= 90% for Cc1c(Cl)ccc2c1S(=O)(=O)c1cccc(Cl)c1-2 ?
0.0

growth inhibition >= 90% for CCOP(=O)(OCC)C(Cc1ccccc1)N=C(c1ccccc1)c1ccccc1 (centres undefined) ?
0.0

growth inhibition >= 90% for c1ccc2c(c1)sc1nc3ccncc3nc12 ?
0.0

Field: next molecule
growth inhibition >= 90% for O=C(N=Nc1ccccc1Cl)NNc1ccccc1Cl ?
0.0

###

Assay: NCI Yeast Anticancer Drug Screen. Data for the bub3 strain (AID 167)
Conditions: S. cerevisiae bub3 mutant strain, at 3.7 µM, stronger effect = higher value
About 79,000 compounds went through this panel and 15% of them were active in at least one assay; those are over-represented in the sample as a whole.
Classification field: T = growth inhibition at or over -20%; F = growth inhibition under -20%.

growth inhibition >= -20% for Cn1c(N)nc(-c2ccc(Cl)cc2)c1SSc1c(-c2ccc(Cl)cc2)nc(N)n1C ?
T

growth inhibition >= -20% for CCCCCCCC1(N=[N+]=[N-])C(=O)c2ccccc2N(C)C1=O (stereo not given) ?
T

growth inhibition >= -20% for OCC1OC(OCC(O)C(O)C(O)C(/C=N/Nc2ccccc2)=N/Nc2ccccc2)C(O)C(O)C1O (stereo not given) ?
T

---
growth inhibition >= -20% for CC1=NN(c2cccc(Cl)c2)C(=O)C1 ?
F

growth inhibition >= -20% for Cc1[nH]c2ccccc2c1C(c1ccc(N)cc1)c1c(C)[nH]c2ccccc12 ?
T

###

Test: NCI Yeast Anticancer Drug Screen. Data for the mec2-1 strain (AID 157)
Conditions: S. cerevisiae mec2-1 strain, at 3.7 µM, stronger effect = higher value
The panel holds about 79,000 compounds, 15% with a hit somewhere; the sample as a whole holds those more often.
property-measured: growth inhibition (%)
Give bare numbers, in %.

Input C[S+](C)C1(c2ccccc2)C(=O)c2ccccc2C1=O . Output growth inhibition: 0

Input CCN(CC)CCC(=O)c1ccc(Oc2ccc(F)cc2)cc1 . Output growth inhibition: 35

Input CC(/C=C/c1ccc2c(c1)OCO2)[N+](=O)[O-] (configuration not stated) . Output growth inhibition: 30

Input CC1(Cl)CC(O)C2(CC1Br)C1(C)OC1C1OC1(Br)C2(C)C (configuration not stated) . Output growth inhibition: -21

Input Cc1nc(-c2ccccc2)c(-c2ccccc2)s1 . Output growth inhibition: 26

Hi, could you look up growth inhibition for each item in my list?
1. CC1OCC2OC(C)OC(C3C4=C(CC(C)(C)CC4=O)OC4=C3C(=O)CC(C)(C)C4)C2O1 (configuration not stated)
2. COP(=O)(OC)/C(=C\C1=CN(C(c2ccccc2)(c2ccccc2)c2ccccc2)CN1)NC=O
3. COC1=CC(=O)C2C(C1=O)C(c1ccc(Cl)cc1)[C@@H]2C (some centres not stated)
4. Cc1ccc(Nc2nc3c(=O)n(C)c(=O)n(C)c3nc2Nc2ccc(C)cc2)cc1
5. Cc1c(Cl)ccc2c1S(=O)(=O)c1cccc(Cl)c1-2
6. COc1ccc2sc3cccc(NCCN(C)C)c3c(=O)c2c1
7. CCCCCCCCCCCCCCCCCCNC

3
13
49
3
-31
4
3

###

Assay: NCI Yeast Anticancer Drug Screen. Data for the rad14 strain (AID 159);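 also: 0% = growth of vehicle-treated control cultures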
Details: S. cerevisiae rad14 strain growth inhibition; at 1.2 µM; stronger effect = higher value
Compounds without any hit were thinned out: in the full panel of roughly 79,000, 15% have a hit.
Please provide measured growth inhibition for the entries that follow.
Numbers only, in %.

Example entries begin here.
Input CCC(C(=O)O)C1=C(c2ccccc2)CCc2ccccc21 (stereo unspecified) . Output growth inhibition: 12

Input c1ccc(-c2ccnc3c2ccc2c(-c4ccccc4)ccnc23)cc1 . Output growth inhibition: -6

Input S=C(N/N=C/c1ccccn1)Nc1ccc(Cl)cc1 . Output growth inhibition: -3

Input O=C1CSC(/C=C/c2ccccc2)N1c1ccc(-c2ccc(-n3c(-c4ccccc4)nc4ccccc4c3=O)cc2)cc1 (stereo unspecified) . Output growth inhibition: 1

Input CCCCCCCCCCCC(=O)N(C)C . Output growth inhibition: 7

Hi, could you look up growth inhibition for each item in my list?
1. CCN(CC)CCN1C(=O)c2cccc3cc(OC)cc(c23)C1=O
2. O=C(NCCCCNCCCNC(=O)c1cc(-c2ccccc2)nc2ccccc12)c1cc(-c2ccccc2)nc2ccccc12
3. C(=C\c1ccccc1)/COc1ccccc1C(N1CCOCC1)n1nc2ccccc2n1 (stereo unspecified)
4. COc1cc2c(cc1[N+](=O)[O-])C(=O)C(Br)(Br)CCC2

1. -10
2. 0
3. -4
4. 33

Hi, could you look up growth inhibition for each item in my list?
1. COP(=O)(OC)/C(=C\C1=CN(C(c2ccccc2)(c2ccccc2)c2ccccc2)CN1)NC=O
2. O=CC=C(c1ccccc1)c1ccccc1

1: 4; 2: 7

###

Please provide measured growth inhibition for the entries that follow.
Assay: NCI Yeast Anticancer Drug Screen. Data for the mlh1 strain (AID 171);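 also: 0% = growth of vehicle-treated control cultures of the same strain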
Details: S. cerevisiae mlh1 strain growth inhibition; at 3.7 µM; stronger effect = higher value
The panel holds about 79,000 compounds, 15% with a hit somewhere; the sample as a whole holds those more often.
Give bare numbers, in %.

Example entries begin here.
Input O=CNc1ccc2c(c1)C(=O)c1ccccc1-2 . Output growth inhibition: 10

Input CC(C)c1cc(C(C)C)c(O)c(C([O-])[O-])c1.CC(C)c1cc(C(C)C)c(O)c(C([O-])[O-])c1.CC(C)c1cc(C(C)C)c(O)c(C([OH2+])[OH2+])c1.CC(C)c1cc(C(C)C)c(O)c(C([OH2+])[OH2+])c1.[Cu+2].[Cu+2].[OH3+].[OH3+] . Output growth inhibition: 15

Input COc1ccc2ccc3ccccc3c2c1C=O . Output growth inhibition: -5

Input O=Cc1cccc2ccc3ccccc3c12 . Output growth inhibition: -5

Input Cc1cc(I)ccc1N . Output growth inhibition: 13

Hi, could you look up growth inhibition for each item in my list?
1. O=C(O)C1CCCCC1c1c2ccc(=O)c(O)c-2oc2c(O)c(O)ccc12 (centres undefined)
2. O=C(OCCN1CCCCCC1)C(c1ccsc1)C1CCCCC1 (centres undefined)
3. CC(Br)C(=O)c1ccc2cc(Br)c3ccccc3c2c1 (centres undefined)
4. COc1cc2c(cc1[N+](=O)[O-])C(=O)C(Br)(Br)CCC2
5. O=[N+]([O-])/C=C/c1ccc2ccccc2c1
6. COC(=O)C1=C(C)NC(C)=C(C(=O)OCCCN2CCC(c3ccccc3)(c3ccccc3)CC2)C1c1cccc([N+](=O)[O-])c1 (centres undefined)
7. CC1=C(C)Cc2c(O)ccc(O)c2C1
8. O=C(Nc1ccccc1)C(=O)C(C(=O)c1ccccc1)C(c1ccccc1)c1ccccc1 (centres undefined)

[-9, 21, 4, 73, 38, 51, 5, 2]

Hi, could you look up growth inhibition for each item in my list?
1. COc1cccc2nc3ccccc3nc12
2. CCC/C(Cl)=N\OC(=O)Nc1cccc(C(F)(F)F)c1

[3, 7]

Hi, could you look up growth inhibition for each item in my list?
1. C#CCCCc1ccccc1
2. COc1ccc(C2c3cc4c(cc3OC(C)(O)C2C)OCO4)c(OC)c1 (centres undefined)
3. CCCCCCCCC/C=C/C=C/C(=O)NCC(=O)NC1C(O)C(O)C(Nc2ncnc3nc[nH]c23)OC1C(O)CO (centres undefined)

-22
2
-38

Hi, could you look up growth inhibition for each item in my list?
1. CCCCCCCCCCCCCCCCCCN(C)CC(COP(=O)([O-])OCC[N+](C)(C)C)OC (centres undefined)
2. COC(=O)c1ccc([N+](=O)[O-])c(O)c1

[11, -1]

Hi, could you look up growth inhibition for each item in my list?
1. CC1CCN(CCC(=O)c2ccc(Cl)cc2)CC1
2. CSC(=S)Nc1cccc(C)n1
3. C[CH2][Sn]([CH2]C)([O]C(=O)C(OC(C)=O)c1ccccc1)[O]C(=O)C(OC(C)=O)c1ccccc1 (centres undefined)
4. CC[C@@]1(O)C(=O)OCc2c1cc1n(c2=O)Cc2cc3c(CN(C)C)c(O)ccc3nc2-1
5. CNC(=O)OCc1c(COC(=O)NC)c(-c2ccc(Cl)c(Cl)c2)n2c1CCC2
6. OCC(Cn1cncn1)(c1ccc(F)cc1F)n1cncn1 (centres undefined)
7. CCc1ncnc2cc(OCC3CO3)c(OC)cc12 (centres undefined)
8. CC(=O)OCCOCNC(=S)N/N=C(\C)c1cnccn1

1. 14
2. -40
3. 0
4. -4
5. -90
6. 47
7. -6
8. -4

Hi, could you look up growth inhibition for each item in my list?
1. O=[N+]([O-])c1cccc2nccc(NCCCO)c12
2. O=CC=C(c1ccccc1)c1ccccc1
3. CCC(C)COC(=O)c1ccc(N=Cc2ccc(C=Nc3ccc(C(=O)OCC(C)CC)cc3)cc2)cc1 (centres undefined)
4. CC1(C)C(=O)OC(n2cc(F)c(=O)[nH]c2=O)C1=O (centres undefined)
5. Cn1c2ccccc2c(=O)c2cc(NC(=O)CCCCC(=O)Nc3ccc4c(c3)c(=O)c3ccccc3n4C)ccc21

[-7, 10, 3, -15, 2]

Hi, could you look up growth inhibition for each item in my list?
1. COc1ccc(N=C2C(=O)Nc3ccc(Br)cc32)cc1
2. S=C(N/N=C/c1ccccn1)Nc1ccc(Cl)cc1
3. CC(C)/C(Cl)=N\OC(=O)Nc1ccccc1F
4. COc1ccc2nc3c([N+](=O)[O-])ccc(NCCN(C)C)c3c(NCCN(C)C)c2c1

1: -3; 2: -9; 3: 5; 4: -2

Hi, could you look up growth inhibition for each item in my list?
1. Fc1ccc(NC(=S)SCc2ccc3c(c2)OCO3)cc1F
2. Cc1cc(N=Nc2ccc(S(=O)(=O)[O-])cc2)cc(C(=O)[O-])c1[O-].NC1CCCCC1N.[Na+].[Pt+4]
3. CC1=C(SCCO)C(=O)c2ccccc2C1=O

1. -28
2. 66
3. -2
